- Target entity: CDK4/cyclin D1 (Homo sapiens (Human))
- Sequence (P11802 whole entry): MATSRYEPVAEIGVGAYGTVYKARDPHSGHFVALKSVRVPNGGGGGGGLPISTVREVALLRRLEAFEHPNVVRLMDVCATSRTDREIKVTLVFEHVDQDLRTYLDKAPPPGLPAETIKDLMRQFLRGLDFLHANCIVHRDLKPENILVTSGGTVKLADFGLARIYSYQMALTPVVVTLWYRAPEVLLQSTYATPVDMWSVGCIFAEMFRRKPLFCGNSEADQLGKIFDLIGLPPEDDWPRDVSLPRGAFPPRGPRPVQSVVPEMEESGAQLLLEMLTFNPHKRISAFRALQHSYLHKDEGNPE
- Sequence (P24385 whole entry partner): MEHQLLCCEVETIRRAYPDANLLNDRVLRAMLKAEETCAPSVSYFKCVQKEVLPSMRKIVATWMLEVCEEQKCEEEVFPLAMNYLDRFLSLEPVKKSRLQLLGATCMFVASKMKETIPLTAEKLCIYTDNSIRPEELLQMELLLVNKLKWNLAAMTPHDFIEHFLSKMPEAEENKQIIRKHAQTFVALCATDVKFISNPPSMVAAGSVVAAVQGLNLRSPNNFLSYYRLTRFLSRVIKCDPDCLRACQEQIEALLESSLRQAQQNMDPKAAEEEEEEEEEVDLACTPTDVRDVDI
- Assay notes: CDK4/cyclin D1 enzymatic activity assay (Protocol A, Lance TR-FRET)
- Format: biochemical
- Setup conditions: CDK4/cyclin D1, 175 nM pRb152, 3 μM ATP, 60 min, room temperature; read-out: IC50 against CDK4 kinase
pIC50: −log10 of the molar value.
// reported pIC50 for each item listed
Endpoint: pIC50

Smiles str: CN1CCN(Cc2ccc3[nH]c(C(=O)c4ccnc(-c5cncc6ccccc56)c4)nc3c2)CC1
Endpoint: pIC50
Val: 7.57

Smiles str: Cc1nn(C)c(C)c1-c1cc(C(=O)c2nc3ccc(N4CCNCC4)nc3[nH]2)ccc1C#N
Endpoint: pIC50
Val: 7.02

Smiles str: CN(C)Cc1ccc2nc(C(=O)c3ccnc(-c4cncc5ccccc45)c3)[nH]c2c1
Endpoint: pIC50
Val: 7.24

Smiles str: COc1ccc(F)c(F)c1-c1cc(C(=O)c2nc3ccc(N4CCC(N(C)C)CC4)nc3[nH]2)ccn1
Endpoint: pIC50
Val: 7.17

Smiles str: COc1ccc(F)c(F)c1-c1cc(C(=O)c2nc3cc(N4CCC(N(C)C)CC4)ccc3[nH]2)ccn1
Endpoint: pIC50
Val: 7.22

Smiles str: CN(C)C1CCN(c2ccc3nc(C(=O)c4ccc(C#N)c(-c5cncc6[nH]ccc56)c4)[nH]c3n2)CC1
Endpoint: pIC50
Val: 8.40

Smiles str: CN(C)C1CCN(c2ccc3[nH]c(C(=O)c4ccnc(-c5cncc6ccccc56)c4)nc3c2)CC1
Endpoint: pIC50
Val: 8.40

Smiles str: N#Cc1ccc(C(=O)c2nc3ccc(N4CCNCC4)nc3[nH]2)cc1-c1cncc2ccccc12
Endpoint: pIC50
Val: 8.10
